I'd be grateful if you could share measured microsomal CLint for these entries.
- Procedure text: Metabolic stability in rat liver microsomes (RLMs)
- Test context: rat, microsomes, Metabolic stability: RLM CL (ul/min/mg), RLMs; mean and SD, three measurements
Output spec: scalar in µL/min/mg, unitless text.

Query string: Form field: reported microsomal CLint of CN1CCC(=O)NCCSCCS(=O)(=O)CCSC[C@H](NC(=O)c2ccc(Cl)s2)C(=O)N[C@@H](Cc2ccccc2)C1=O [compound 14]
Result string: 117

Query string: Now give it for O=C(N[C@H]1CSCc2cccc(n2)CSCCNC(=O)[C@H](Cc2c[nH]cn2)NC(=O)C2(CCCC2)NC1=O)c1ccc(Cl)s1 [compound 29] too.
Result string: 8.1

Query string: Now give it for O=C1CCSCc2ccc(cc2)CSCCNC(=O)[C@H](CNC(=O)c2ccc(Cl)s2)NC(=O)[C@H](Cc2ccccn2)N1 [compound 21] too.
Result string: 82

Query string: Now give it for O=C1CCSC/C=C/CSCCNC(=O)[C@H](CNC(=O)c2ccc(Cl)s2)NC(=O)[C@H](Cc2ccccn2)N1 [compound 22] too.
Result string: 260

Query string: Now give it for O=C1C[C@H]2CCCN2C(=O)[C@H](Cc2ccccc2)NC(=O)[C@@H](NC(=O)c2ccc(Cl)s2)CSCc2cccc(n2)CSCCN1 [compound 31] too.
Result string: 51

Query string: Now give it for O=C1C[C@H]2CCCN2C(=O)[C@H](Cc2ccccc2)NC(=O)[C@@H](NC(=O)c2ccc(Cl)s2)CSCCS(=O)(=O)CCSCCN1 [peptide 11] too.
Result string: 82
